assayed.target: hP2X2/3 (heterodimeric receptors formed by human purinergic P2X receptors subtype 2 and subtype 3) (Homo sapiens (Human), UniProt P56373+Q9UBL9)
Sequence (P56373 whole entry): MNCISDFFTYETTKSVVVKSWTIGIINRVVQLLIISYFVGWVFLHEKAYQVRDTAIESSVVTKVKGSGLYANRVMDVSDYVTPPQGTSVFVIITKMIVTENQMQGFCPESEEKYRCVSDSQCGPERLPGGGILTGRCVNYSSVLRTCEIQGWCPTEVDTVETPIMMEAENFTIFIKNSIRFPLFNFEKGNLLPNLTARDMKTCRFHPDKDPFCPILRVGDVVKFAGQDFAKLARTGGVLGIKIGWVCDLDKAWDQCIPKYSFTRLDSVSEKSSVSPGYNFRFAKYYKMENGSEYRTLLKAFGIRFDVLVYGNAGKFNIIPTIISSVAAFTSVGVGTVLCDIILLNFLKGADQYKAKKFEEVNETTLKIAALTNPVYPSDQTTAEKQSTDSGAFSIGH
Sequence (Q9UBL9 whole entry): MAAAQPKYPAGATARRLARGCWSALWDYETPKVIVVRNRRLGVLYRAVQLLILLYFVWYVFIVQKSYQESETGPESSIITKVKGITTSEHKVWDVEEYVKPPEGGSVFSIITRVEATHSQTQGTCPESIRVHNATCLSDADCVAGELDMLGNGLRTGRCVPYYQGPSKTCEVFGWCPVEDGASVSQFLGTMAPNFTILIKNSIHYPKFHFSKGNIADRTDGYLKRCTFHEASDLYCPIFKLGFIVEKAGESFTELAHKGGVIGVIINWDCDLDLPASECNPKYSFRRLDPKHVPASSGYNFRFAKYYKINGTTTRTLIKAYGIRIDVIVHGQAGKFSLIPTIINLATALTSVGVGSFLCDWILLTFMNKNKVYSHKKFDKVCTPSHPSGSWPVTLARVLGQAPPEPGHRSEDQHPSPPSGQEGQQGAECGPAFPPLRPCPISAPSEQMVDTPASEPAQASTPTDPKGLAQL
method.description: FLIPR calcium assay, hP2X2/3 expressed in HEK293 cells (P2X2/3 receptor selectivity)
Assay type: cell-based

| compound | Folds of selectivity |
| --- | --- |
| CNC(=O)c1cc(F)c(-c2nc3cc(C)ccn3c2C[C@H]2CN(C(=O)OC)CCO2)c(F)c1 [Positive compound 1, reference compound] | >5217 |
| COC(=O)N1CCO[C@@H](Cc2c(-c3c(F)cc(S(N)(=O)=O)cc3F)nc3cc(Cl)ccn23)C1 | >85714 |

* * *

method.description: In vitro metabolic stability, human liver microsome
Format: in vitro ADME
assay.setup: liver microsomes, 1 mg/mL liver microsome protein, 37° C., NA = essentially not metabolized, read-out: T1/2 in human liver microsome
Sorting guide: entries reporting half-life beneath 10 h go in the Satisfied pile, the rest go in the Not satisfied pile.

| molecule | assigned.class |
| --- | --- |
| COC(=O)N1CCO[C@@H](Cc2c(-c3c(F)cc(S(N)(=O)=O)cc3F)nc3cc(C)ccn23)C1 [Compound 171] | Satisfied |
| COC(=O)N1CCO[C@@H](Cc2c(-c3c(F)cc(-c4ncco4)cc3F)nc3cc(C)ccn23)C1 [Compound 10] | Satisfied |
| COC(=O)N1CCO[C@@H](Cc2c(-c3c(F)cc(S(N)(=O)=O)cc3F)nc3cc(Cl)ccn23)C1 [Compound 172] | Not satisfied |
| COC(=O)N1CCO[C@@H](Cc2c(-c3c(F)cc(-c4ccccn4)cc3F)nc3cc(C)ccn23)C1 [Compound 17] | Not satisfied |
| COC(=O)N1CCO[C@@H](Cc2c(-c3ccc(S(N)(=O)=O)cc3Cl)nc3cc(C)ccn23)C1 [Compound 176] | Satisfied |
| COC(=O)N1CCO[C@@H](Cc2c(-c3c(F)cc(-c4cc[nH]n4)cc3F)nc3cc(C)ccn23)C1 [Compound 15] | Satisfied |
| COC(=O)N1CCO[C@@H](Cc2c(-c3ccc(S(N)(=O)=O)cc3C)nc3cc(C)ccn23)C1 [Compound 184] | Not satisfied |
| COC(=O)N1CCO[C@@H](Cc2c(-c3cnc(-n4cccn4)cc3C)nc3cc(C)ccn23)C1 [Compound 168] | Satisfied |
| COC(=O)N1CCO[C@@H](Cc2c(-c3c(F)cc(S(N)(=O)=O)cc3F)nc3cc(C)c(F)cn23)C1 [Compound 182] | Satisfied |
| COC(=O)N1CCO[C@@H](Cc2c(-c3c(F)cc(-c4ccc[nH]4)cc3F)nc3cc(C)ccn23)C1 [Compound 4] | Satisfied |
| COC(=O)N1CCO[C@@H](Cc2c(-c3c(F)cc(-n4ccnc4)cc3F)nc3cc(C)ccn23)C1 [Compound 5] | Not satisfied |
| COC(=O)N1CCO[C@@H](Cc2c(-c3cc(F)c(S(N)(=O)=O)cc3Cl)nc3cc(Cl)ccn23)C1 [Compound 181] | Not satisfied |

* * *

System: Male Dunkin Hartley guinea pigs
method.description: Citric acid only cough model
Type: in vivo, guinea pig
assay.setup: Cavia porcellus; 30 mg/kg; read-out: Cough inhibition rate Vs Baseline (%)
Each entry below carries its reported inhibition in vivo at 30 mg/kg.

| smiles.code | units.of.measure | inhibition in vivo at 30 mg/kg |
| --- | --- | --- |
| CC(=O)N1CCO[C@@H](Cc2c(-c3c(F)cc(-n4ccnc4)cc3F)nc3cc(C)ccn23)C1 | % | 46.1 |
| COC(=O)N1CCO[C@@H](Cc2c(-c3c(F)cc(N)cc3F)nc3cc(Cl)ccn23)C1 | % | 66.2 |
| COC(=O)N1CCO[C@@H](Cc2c(-c3c(F)cc(-c4ncc[nH]4)cc3F)nc3cc(C)ccn23)C1 | % | 42.6 |

Reference for the values: patent US20240034729A9
